# TGI listing for each entry below
tested on: A549 NSCLC; test: NCI tumour cell line growth inhibition, 48 h

>  <molecule>
CCOC(=O)/C=C/CC(C)(C)COC(C)=O

>  <TGI>
> 10 µM

$$$$
>  <molecule>
COC(=O)Nc1nc2ccc(Oc3ccc(NC(=O)Nc4ccccc4)cc3)cc2[nH]1

>  <TGI>
5.32 µM

$$$$
>  <molecule>
COc1ccc(C(C)c2cc3c(cc2OC)OCO3)cc1 (stereo not given)

>  <TGI>
> 100 µM

$$$$
>  <molecule>
OCC1OC(NC(=S)NCCC(F)(F)C(F)(F)C(F)(F)C(F)(F)C(F)(F)C(F)(F)F)C(O)C(O)C1O (stereo not given)

>  <TGI>
> 100 µM

$$$$
>  <molecule>
CCC1CN2CCc3cc(OC)c(OC)cc3C2CC1CC1c2cc(OC)c(OC)cc2CCN1C(=O)C(N)Cc1ccccc1 (stereo not given)

>  <TGI>
7.85 µM

$$$$
>  <molecule>
Cc1c(N=Nc2ccccc2)c(-c2ccccc2)n(C2OC(CO)C(O)C(O)C2O)c(=S)c1C#N (stereo not given)

>  <TGI>
21.5 µM

$$$$
>  <molecule>
O=c1cccccc1NCCCNc1cccccc1=O

>  <TGI>
> 100 µM

$$$$
>  <molecule>
N=c1c2ccccc2nc2oc3cc([N+](=O)[O-])ccc3n12

>  <TGI>
> 100 µM

$$$$
>  <molecule>
COc1ccc(OC)c(/C=C/C(=O)N/N=C/c2ccc(Cl)cc2)c1

>  <TGI>
> 100 µM

$$$$
>  <molecule>
O=c1[nH]c(=O)n(C/C=C/CO)nc1Br

>  <TGI>
> 100 µM

$$$$

###

Recorded log10 of TGI for the following compounds
system: SK-MEL-5 melanoma; test: NCI tumour cell line growth inhibition, 48 h
parameter: log10 of TGI (log10 of the value in µM)

>  <compound>
CCN(CCCl)c1cc(CN(C)C)cc(NC(=O)c2ccc(C(=O)Nc3cc(CN(C)C)cc(N(CC)CCCl)c3)cc2)c1

>  <tested target>
SK-MEL-5 melanoma

>  <parameter>
log10 of TGI

>  <recorded measurement>
-0.48

$$$$
>  <compound>
CCC(C)C(=O)OC1C(=O)OC2CC3C(C)=CC(=O)C(O)C3(C)C3C4(O)OCC23C1C(C)C4O (stereo not given)

>  <tested target>
SK-MEL-5 melanoma

>  <parameter>
log10 of TGI

>  <recorded measurement>
-1.60

$$$$
>  <compound>
CCOc1cccc(C=Nc2ccccc2SSc2ccccc2N=Cc2cccc(OCC)c2O)c1O

>  <tested target>
SK-MEL-5 melanoma

>  <parameter>
log10 of TGI

>  <recorded measurement>
0.88

$$$$
>  <compound>
O=C(/C=C/c1cccc([N+](=O)[O-])c1)N1CCN(CCOC(c2ccccc2)c2ccccc2)CC1

>  <tested target>
SK-MEL-5 melanoma

>  <parameter>
log10 of TGI

>  <recorded measurement>
1.45

$$$$
>  <compound>
Cc1ccc(C(=NN=C(N)N)c2ccc(C)cc2)cc1

>  <tested target>
SK-MEL-5 melanoma

>  <parameter>
log10 of TGI

>  <recorded measurement>
0.18

$$$$
>  <compound>
COc1cc(OC)c(/C=C/C(=O)c2c(OC)cccc2OC)c(OC)c1

>  <tested target>
SK-MEL-5 melanoma

>  <parameter>
log10 of TGI

>  <recorded measurement>
0.40

$$$$
>  <compound>
CN(C)CC/C(=N\Nc1c(Cl)cccc1Cl)c1ccccc1

>  <tested target>
SK-MEL-5 melanoma

>  <parameter>
log10 of TGI

>  <recorded measurement>
1.47

$$$$

Recorded values, source PubChem BioAssay (NCI).
